Test system: Escherichia coli TOP10
Test: shrunken log2 fold change of peptide-encoding DNA abundance (4.5 h post-induction vs induction); higher = less antimicrobial activity (less host growth inhibition)
Details: time post-induction: 4.5 h; library: site-saturation at positions 5, 18, 19, 20
Please provide measured shrunken log2 fold change for the entries that follow.

Incoming: // returns reported shrunken log2 fold change for input RRIRQRPPRLPRPRPRPFNRPRP
Outgoing: -0.0328

Incoming: Can you look up the measured shrunken log2 fold change of RRIRNRPPRLPRPRPRPNSDPRP for me?
Outgoing: -0.073

Incoming: Could you share which shrunken log2 fold change value was measured for RRIRTRPPRLPRPRPRPHARPRP ?
Outgoing: 0.158

Incoming: Value lookup for shrunken log2 fold change; key = RRIRCRPPRLPRPRPRPDSRPRP
Outgoing: 0.0735

Incoming: Could you share which shrunken log2 fold change value was measured for RRIRARPPRLPRPRPRPIMFPRP ?
Outgoing: -0.0901

Incoming: Any idea what shrunken log2 fold change was measured for RRIRTRPPRLPRPRPRPSRCPRP ?
Outgoing: 0.061

Incoming: Looking for the measured shrunken log2 fold change of RRIRIRPPRLPRPRPRPMVGPRP , can you help?
Outgoing: 0.105

Incoming: Given the entry RRIRIRPPRLPRPRPRPGWEPRP , report its measured shrunken log2 fold change.
Outgoing: 0.0557

Incoming: # input sequence: RRIRARPPRLPRPRPRPLAHPRP ; wanted: its shrunken log2 fold change
Outgoing: 0.296

Incoming: Item RRIRFRPPRLPRPRPRPDMWPRP has what recorded shrunken log2 fold change?
Outgoing: -1.03

Incoming: State the recorded shrunken log2 fold change for this entry: RRIRHRPPRLPRPRPRPTWYPRP
Outgoing: -0.674

Incoming: Query (sequence): RRIRNRPPRLPRPRPRPQDMPRP ; field requested: shrunken log2 fold change
Outgoing: 0.0124

###

System: Escherichia coli TOP10;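 note: peptides expressed intracellularly from a pBAD plasmid library in pooled LB shake-flask culture, induced with 0.3% L-arabinose, DNA abundance read by NGS, three biological replicates, DESeq2 with apeglm shrinkage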
Experiment: shrunken log2 fold change of peptide-encoding DNA abundance (4.5 h post-induction vs induction); higher = less antimicrobial activity (less host growth inhibition)
Conditions: time post-induction: 4.5 h; library: site-saturation at positions 5, 18, 19, 20
quantity: shrunken log2 fold change
Keep the answer to the number alone.

Incoming: shrunken log2 fold change for RRIRCRPPRLPRPRPRPTVMPRP ?
Outgoing: 0.0757

Incoming: Request the reported shrunken log2 fold change associated with RRIRVRPPRLPRPRPRPTNAPRP
Outgoing: -0.211

Incoming: Which shrunken log2 fold change is reported for this sequence? RRIRGRPPRLPRPRPRPWCMPRP
Outgoing: 0.13

Incoming: Look at this sequence and give its reported shrunken log2 fold change. RRIRGRPPRLPRPRPRPPQGPRP
Outgoing: 0.812

Incoming: Need shrunken log2 fold change of RRIRSRPPRLPRPRPRPTKIPRP , thanks.
Outgoing: 0.00311

Incoming: Can you look up the measured shrunken log2 fold change of RRIRGRPPRLPRPRPRPSINPRP for me?
Outgoing: -0.0752

Incoming: Look up shrunken log2 fold change: RRIRRRPPRLPRPRPRPRSQPRP
Outgoing: 0.533

Incoming: Sample RRIRQRPPRLPRPRPRPDNKPRP — what was its shrunken log2 fold change?
Outgoing: -0.532

Incoming: // shrunken log2 fold change lookup, key: RRIRRRPPRLPRPRPRPLIQPRP
Outgoing: 0.256

Incoming: What value of shrunken log2 fold change has been recorded for this entry: RRIRGRPPRLPRPRPRPYFEPRP
Outgoing: -0.123

Incoming: Name the reported shrunken log2 fold change value associated with the sequence RRIRVRPPRLPRPRPRPMHVPRP
Outgoing: 0.0592

Incoming: Requested read-out: shrunken log2 fold change. Entry: RRIRWRPPRLPRPRPRPLLRPRP
Outgoing: 0.325

Incoming: Reported shrunken log2 fold change, sequence RRIRDRPPRLPRPRPRPWPMPRP : ____
Outgoing: -0.0379

Incoming: Requested field: shrunken log2 fold change. Item: RRIRPRPPRLPRPRPRPIECPRP
Outgoing: -0.206

Incoming: Query: shrunken log2 fold change; subject: RRIRFRPPRLPRPRPRPHHLPRP
Outgoing: -1.06

Incoming: I'd like to know its shrunken log2 fold change. The sequence in question is RRIRIRPPRLPRPRPRPGPSPRP
Outgoing: 0.108

Incoming: Quick check: shrunken log2 fold change of RRIRRRPPRLPRPRPRPSCMPRP ?
Outgoing: 0.019

Incoming: Field request: shrunken log2 fold change | item: RRIRKRPPRLPRPRPRPAGYPRP
Outgoing: 0.0743

Incoming: Consider the sequence shown here: RRIRTRPPRLPRPRPRPFDCPRP What is its recorded shrunken log2 fold change?
Outgoing: -0.748

Incoming: Find the recorded shrunken log2 fold change belonging to RRIRKRPPRLPRPRPRPNMPPRP and report it.
Outgoing: 0.145

Incoming: Look at this sequence and give its reported shrunken log2 fold change. RRIRIRPPRLPRPRPRPNYFPRP
Outgoing: -0.749

// provenance: the supplement of paper PMC9112550
